- PROCEDURE_DETAILS: Extracellular (serum) nutrient levels by mass spectrometry (LC-MS, GC-MS, ICP-MS)
- EXPERIMENTAL_CONTEXT: Level: Serum; person; before customized blend
The entries below come with measured Actual Nutrient Value (ANV) values attached.
// return numeric value only (unit: ng/mL, not printed)

# annotated cases, reported Actual Nutrient Value (ANV) shown
MOLECULE	MEASURED_PROPERTY	VALUE_UNITS	OBSERVED
[Cu]	Actual Nutrient Value (ANV)	ng/mL	100
CC(C)(CO)[C@@H](O)C(=O)NCCC(=O)O	Actual Nutrient Value (ANV)	ng/mL	5.4
C=C1CC[C@H](O)C/C1=C/C=C1\CCC[C@]2(C)[C@@H]([C@H](C)CCCC(C)C)CC[C@@H]12	Actual Nutrient Value (ANV)	ng/mL	0.1
Nc1nc2ncc(CNc3ccc(C(=O)N[C@@H](CCC(=O)O)C(=O)O)cc3)nc2c(=O)[nH]1 [Folate]	Actual Nutrient Value (ANV)	ng/mL	0.8
[Ca]	Actual Nutrient Value (ANV)	ng/mL	31000
O=C1O[C@H]([C@@H](O)CO)C(O)=C1O	Actual Nutrient Value (ANV)	ng/mL	1000

Attention now shifts to the item below.
Actual Nutrient Value (ANV) recorded for this molecule, [Fe] , is 140

====

- PROCEDURE_DETAILS: NutriPro test: serum, RBC and WBC nutrient values before and after ATB / customized blend
- Assay type: in vivo, human
- EXPERIMENTAL_CONTEXT: person two; serum; before ATB
MEASURED_PROPERTY: Pre-test biomarker level (ng/mL)
// return numeric value only (unit: ng/mL, not printed)

MOLECULE	VALUE_UNITS	OBSERVED
[Ca]	ng/mL	54000
CC1=C(C/C=C(\C)CCC[C@H](C)CCC[C@H](C)CCCC(C)C)C(=O)c2ccccc2C1=O	ng/mL	0.08
CC(C)(CO)[C@@H](O)C(=O)NCCC(=O)O	ng/mL	14.4
COC1=C(OC)C(=O)C(C/C=C(\C)CC/C=C(\C)CC/C=C(\C)CC/C=C(\C)CC/C=C(\C)CC/C=C(\C)CC/C=C(\C)CC/C=C(\C)CC/C=C(\C)CCC=C(C)C)=C(C)C1=O	ng/mL	100

Pre-test biomarker level recorded for this molecule, [Mn+2] , is 0.4

Pre-test biomarker level recorded for this molecule, Nc1nc2ncc(CNc3ccc(C(=O)N[C@@H](CCC(=O)O)C(=O)O)cc3)nc2c(=O)[nH]1 [Folate] , is 0.9

====

- PROCEDURE_DETAILS: Vibrant Absorption Factor (VAF): difference of post- and pre-supplementation nutrient values divided by ATB dosage
- EXPERIMENTAL_CONTEXT: person one; cells
MEASURED_PROPERTY: VAF
Write no unit; give the number alone.

# annotated cases, reported VAF shown
STRUCTURE_STRING	VAF
[Zn]	1.333
CC/C=C\C/C=C\C/C=C\C/C=C\C/C=C\CCCC(=O)O	0.154
O=C1O[C@H]([C@@H](O)CO)C(O)=C1O	0.07

VAF recorded for this compound, C=C1CC[C@H](O)C/C1=C/C=C1\CCC[C@]2(C)[C@@H]([C@H](C)CCCC(C)C)CC[C@@H]12 , is 0.067

====

The entries below come with measured Actual Nutrient Value (ANV) values attached.
- PROCEDURE_DETAILS: NutriPro test: serum, RBC and WBC nutrient values before and after ATB / customized blend
- Format: in vivo, human
- EXPERIMENTAL_CONTEXT: person three; serum; before customized blend
// return numeric value only (unit: µg/mL, not printed)

STRUCTURE_STRING	OBSERVED
Cc1cc2nc3c(=O)[nH]c(=O)nc-3n(C[C@H](O)[C@H](O)[C@H](O)CO)c2cc1C	0.0055
[Fe]	0.22
[Zn]	0.5
COC1=C(OC)C(=O)C(C/C=C(\C)CC/C=C(\C)CC/C=C(\C)CC/C=C(\C)CC/C=C(\C)CC/C=C(\C)CC/C=C(\C)CC/C=C(\C)CC/C=C(\C)CCC=C(C)C)=C(C)C1=O	0.1
CC1=C(C/C=C(\C)CCC[C@H](C)CCC[C@H](C)CCCC(C)C)C(=O)c2ccccc2C1=O	7e-05

Attention now shifts to the item below.
Actual Nutrient Value (ANV) recorded for this compound, [Cr] , is 0.000133

====

The entries below come with measured Follow-up Biomarker level values attached.
- PROCEDURE_DETAILS: NutriPro test: serum, RBC and WBC nutrient values before and after ATB / customized blend
- Assay type: in vivo, human
- EXPERIMENTAL_CONTEXT: person two; serum; after customized blend
// return numeric value only (unit: µg/L, not printed)

# annotated cases, reported Follow-up Biomarker level shown
COMPOUND	Follow-up Biomarker level, µg/L
CC(C)(CO)[C@@H](O)C(=O)NCCC(=O)O [Vitamin B5]	311
[Mn+2] [Manganese]	2.1
COC1=C(OC)C(=O)C(C/C=C(\C)CC/C=C(\C)CC/C=C(\C)CC/C=C(\C)CC/C=C(\C)CC/C=C(\C)CC/C=C(\C)CC/C=C(\C)CC/C=C(\C)CCC=C(C)C)=C(C)C1=O [Coenzyme 10]	1880

Attention now shifts to the item below.
Follow-up Biomarker level recorded for this compound, [Ca] [Calcium] , is 104200

====

The entries below come with measured Follow-up Nutrient Level values attached.
- PROCEDURE_DETAILS: Extracellular (serum) nutrient levels by mass spectrometry (LC-MS, GC-MS, ICP-MS)
- EXPERIMENTAL_CONTEXT: Level: Serum; person; after customized blend
// return numeric value only (unit: mg/dL, not printed)

# annotated cases, reported Follow-up Nutrient Level shown
COMPOUND	VALUE_UNITS	Follow-up Nutrient Level
[Cu] [Copper]	mg/dL	0.05
[Ca] [Calcium]	mg/dL	6.2
C=C1CC[C@H](O)C/C1=C/C=C1\CCC[C@]2(C)[C@@H]([C@H](C)CCCC(C)C)CC[C@@H]12 [Vitamin D3]	mg/dL	7.2e-05
[Fe] [Iron]	mg/dL	0.019

Follow-up Nutrient Level recorded for this compound, CC(C)(CO)[C@@H](O)C(=O)NCCC(=O)O [Vitamin B5] , is 0.00144

Follow-up Nutrient Level recorded for this compound, O=C1O[C@H]([C@@H](O)CO)C(O)=C1O [Vitamin C] , is 0.23

====

The entries below come with measured Post-test biomarker level values attached.
- PROCEDURE_DETAILS: NutriPro test: serum, RBC and WBC nutrient values before and after ATB / customized blend
- Type: in vivo, human
- EXPERIMENTAL_CONTEXT: person one; serum; after ATB
// return numeric value only (unit: ng/mL, not printed)

# annotated cases, reported Post-test biomarker level shown
COMPOUND	VALUE_UNITS	Post-test biomarker level
C=C1CC[C@H](O)C/C1=C/C=C1\CCC[C@]2(C)[C@@H]([C@H](C)CCCC(C)C)CC[C@@H]12	ng/mL	2.3
Nc1nc2ncc(CNc3ccc(C(=O)N[C@@H](CCC(=O)O)C(=O)O)cc3)nc2c(=O)[nH]1 [Folate]	ng/mL	2.8

Attention now shifts to the item below.
Post-test biomarker level recorded for this compound, O=C(O)c1cccnc1 , is 3.9

====

The entries below come with measured Follow-up Nutrient Level values attached.
- PROCEDURE_DETAILS: NutriPro test: serum, RBC and WBC nutrient values before and after ATB / customized blend
- Type: in vivo, human
- EXPERIMENTAL_CONTEXT: person three; serum; after customized blend
- Source text: The method for providing a nutritional supplement for a subject as disclosed herein is based on a comprehensive panel that assesses intracellular and extracellular levels of at least or up to 41 nutrients. […] Blood analysis using the method disclosed herein tests for nutrient levels in serum, red blood cells (RBCs), and white blood cells (WBCs). Additional genetic testing can assess patients' predispositions toward nutrient deficiencies. […] The assessed change is called the VAF. […]
// return numeric value only (unit: ng/mL, not printed)

# annotated cases, reported Follow-up Nutrient Level shown
COMPOUND	VALUE_UNITS	Follow-up Nutrient Level
Cc1cc2nc3c(=O)[nH]c(=O)nc-3n(C[C@H](O)[C@H](O)[C@H](O)CO)c2cc1C [Vitamin B2]	ng/mL	231
[Cr] [Chromium]	ng/mL	0.277
COC1=C(OC)C(=O)C(C/C=C(\C)CC/C=C(\C)CC/C=C(\C)CC/C=C(\C)CC/C=C(\C)CC/C=C(\C)CC/C=C(\C)CC/C=C(\C)CC/C=C(\C)CCC=C(C)C)=C(C)C1=O [Coenzyme Q10]	ng/mL	1990
[Fe] [Iron]	ng/mL	1410
CC1=C(C/C=C(\C)CCC[C@H](C)CCC[C@H](C)CCCC(C)C)C(=O)c2ccccc2C1=O [Vitamin K1]	ng/mL	12.3

Attention now shifts to the item below.
Follow-up Nutrient Level recorded for this compound, [Zn] [Zinc] , is 1550

Every entry's value here was drawn from patent US20260169011A1.
